EXPERIMENT: Stability in citrated human blood
RECORDED CONDITIONS: 5 hours incubation at 37° C. in citrated human blood, 50 μM

MOLECULE	READING UNIT	total % metabolites
COc1cccc2c1C(=O)c1c(O)c3c(c(O)c1C2=O)CC(O)(C(=O)CO)CC3OC1CC(NC(=O)C2CCCN2C(=O)CNC(=O)C(CC(C)C)NC(=O)C(C)NC(=O)CP(=O)(O)O)C(O)C(C)O1 (stereo not shown)	%	9
COc1cccc2c1C(=O)c1c(O)c3c(c(O)c1C2=O)CC(O)(C(=O)CO)CC3OC1CC(NC(=O)C(Cc2ccccc2)NC(=O)C(C)NC(=O)C(CC(C)C)NC(=O)C(C)NC(=O)CP(=O)(O)O)C(O)C(C)O1 (stereo not shown)	%	10
COc1cccc2c1C(=O)c1c(O)c3c(c(O)c1C2=O)CC(O)(C(=O)CO)CC3OC1CC(NC(=O)C(CC(C)C)NC(=O)C(C)NC(=O)C(CC(C)C)NC(=O)C(C)NC(=O)CP(=O)(O)O)C(O)C(C)O1 (stereo not shown)	%	15
COc1cccc2c1C(=O)c1c(O)c3c(c(O)c1C2=O)CC(O)(C(=O)CO)CC3OC1CC(NC(=O)C(Cc2ccccc2)NC(=O)C2CCCN2C(=O)C(CC(C)C)NC(=O)C(C)NC(=O)CP(=O)(O)O)C(O)C(C)O1 (stereo not shown)	%	5

====

Quick reference for % metabolites released: Dox among some molecules
EXPERIMENT: Stability in citrated human blood
RECORDED CONDITIONS: 5 hours incubation at 37° C. in citrated human blood, 50 μM
PROPERTY NAME: % metabolites released: Dox (%)

MOLECULE	PROPERTY NAME	REPORTED
COc1cccc2c1C(=O)c1c(O)c3c(c(O)c1C2=O)CC(O)(C(=O)CO)CC3OC1CC(NC(=O)C2CCCN2C(=O)CNC(=O)C(CC(C)C)NC(=O)C(C)NC(=O)CP(=O)(O)O)C(O)C(C)O1 (stereo not shown)	% metabolites released: Dox	6
COc1cccc2c1C(=O)c1c(O)c3c(c(O)c1C2=O)CC(O)(C(=O)CO)CC3OC1CC(NC(=O)C(Cc2ccccc2)NC(=O)C(C)NC(=O)C(CC(C)C)NC(=O)C(C)NC(=O)CP(=O)(O)O)C(O)C(C)O1 (stereo not shown)	% metabolites released: Dox	5
COc1cccc2c1C(=O)c1c(O)c3c(c(O)c1C2=O)CC(O)(C(=O)CO)CC3OC1CC(NC(=O)C(CC(C)C)NC(=O)C(C)NC(=O)C(CC(C)C)NC(=O)C(C)NC(=O)CP(=O)(O)O)C(O)C(C)O1 (stereo not shown)	% metabolites released: Dox	9
COc1cccc2c1C(=O)c1c(O)c3c(c(O)c1C2=O)CC(O)(C(=O)CO)CC3OC1CC(NC(=O)C(Cc2ccccc2)NC(=O)C2CCCN2C(=O)C(CC(C)C)NC(=O)C(C)NC(=O)CP(=O)(O)O)C(O)C(C)O1 (stereo not shown)	% metabolites released: Dox	4

====

Entries and their total % metabolites
EXPERIMENT: Stability in citrated human plasma
RECORDED CONDITIONS: 5 hours incubation at 37° C. in citrated human plasma (pH7), 50 μM

MOLECULE	total % metabolites, %
COc1cccc2c1C(=O)c1c(O)c3c(c(O)c1C2=O)CC(O)(C(=O)CO)CC3OC1CC(NC(=O)C(Cc2ccccc2)NC(=O)C2CCCN2C(=O)C(CC(C)C)NC(=O)C(C)NC(=O)CP(=O)(O)O)C(O)C(C)O1 (stereo not shown) [PhAc-ALPF-Dox, PhAc-ALPF-doxorubicin]	0
COc1cccc2c1C(=O)c1c(O)c3c(c(O)c1C2=O)CC(O)(C(=O)CO)CC3OC1CC(NC(=O)C(Cc2ccccc2)NC(=O)C(C)NC(=O)C(CC(C)C)NC(=O)C(C)NC(=O)CP(=O)(O)O)C(O)C(C)O1 (stereo not shown) [PhAc-ALAF-Dox, PhAc-ALAF-doxorubicin]	2
COc1cccc2c1C(=O)c1c(O)c3c(c(O)c1C2=O)CC(O)(C(=O)CO)CC3OC1CC(NC(=O)C2CCCN2C(=O)CNC(=O)C(CC(C)C)NC(=O)C(C)NC(=O)CP(=O)(O)O)C(O)C(C)O1 (stereo not shown) [PhAc-ALGP-Dox, PhAc-ALGP-doxorubicin]	2
COc1cccc2c1C(=O)c1c(O)c3c(c(O)c1C2=O)CC(O)(C(=O)CO)CC3OC1CC(NC(=O)C(CC(C)C)NC(=O)C(C)NC(=O)C(CC(C)C)NC(=O)C(C)NC(=O)CP(=O)(O)O)C(O)C(C)O1 (stereo not shown) [PhAc-ALAL-Dox, PhAc-ALAL-doxorubicin]	2

All values here come from patent US10076576B2.
